test-summary: Acute toxicity in mice (Litchfield-Wilcoxon)
Set-up: species or system mouse (ddY-strain)
condition-details: mouse, in vivo; ddY mice, iv; parentheses: 95% reliability limits
measured-property: LD50 at 72 h (mg/kg)
Numeric only. Scale: mg/kg

# get_value(readout='LD50 at 72 h', item= Nc1nc2c(ncn2[C@@H]2O[C@H](COP(=O)([O-])[O-])[C@@H](O)[C@H]2O)c(=O)[nH]1.[Na+].[Na+] [5'-GMP (sodium salt), guanosine 5'-monophosphate sodium salt] )
3350

====

test-summary: Acute toxicity in mice (Litchfield-Wilcoxon)
Parameters: species or system mouse (ddY-strain)
condition-details: mouse, in vivo; ddY mice, po; parentheses: 95% reliability limits
measured-property: LD50 at 72 h

# get_value(readout='LD50 at 72 h', item= Nc1nc2c(ncn2[C@@H]2O[C@H](COP(=O)([O-])[O-])[C@@H](O)[C@H]2O)c(=O)[nH]1.[Na+].[Na+] [5'-GMP (sodium salt), guanosine 5'-monophosphate sodium salt] )
14800 mg/kg
